Molecular target: Glutamate receptor ionotropic, AMPA (Rattus norvegicus) (UniProt P19491+P19492+P19493+P19490)
Assay: Binding affinity against rat brain Non N-methyl-D-aspartate glutamate receptor glutamate site expressed in Xenopus oocyte
Parameter Kb: see the listing below.
measured_quantity: Kb (µM)

- smiles_str: "O=[N+]([O-])c1cc(Cl)cc2nc(O)c(O)nc12"
  measurement_unit: "µM"
  result: 8.02
- smiles_str: "Oc1nc2cc(F)c(Cl)c(F)c2nc1O"
  measurement_unit: "µM"
  result: 13.2
- smiles_str: "Oc1nc2cc(F)c(F)cc2nc1O"
  measurement_unit: "µM"
  result: 21.5
- smiles_str: "Oc1nc2c(F)c(F)c(F)c(F)c2nc1O"
  measurement_unit: "µM"
  result: 26.6
- smiles_str: "Nc1c(C(F)(F)F)cc(Cl)c2nc(O)c(O)nc12"
  measurement_unit: "µM"
  result: 63.4
- smiles_str: "Oc1nc2cc(Cl)cc(C(F)(F)F)c2nc1O"
  measurement_unit: "µM"
  result: 4.67
- smiles_str: "Oc1nc2cc(Cl)c(C(F)(F)F)cc2nc1O"
  measurement_unit: "µM"
  result: 2.55
- smiles_str: "Oc1nc2cc(F)c(F)c(Cl)c2nc1O"
  measurement_unit: "µM"
  result: 17.9
- smiles_str: "O=[N+]([O-])c1cc(C(F)(F)F)cc2nc(O)c(O)nc12"
  measurement_unit: "µM"
  result: 4.13
- smiles_str: "O=[N+]([O-])c1c(Br)c(Cl)cc2nc(O)c(O)nc12"
  measurement_unit: "µM"
  result: 0.95
- smiles_str: "Nc1c(Cl)c(Cl)cc2nc(O)c(O)nc12"
  measurement_unit: "µM"
  result: 5.19
- smiles_str: "Oc1nc2cc(Cl)c(Br)cc2nc1O"
  measurement_unit: "µM"
  result: 5.7
- smiles_str: "Oc1nc2ccc(Cl)cc2nc1O"
  measurement_unit: "µM"
  result: 16.4
- smiles_str: "O=[N+]([O-])c1cc2nc(O)c(O)nc2cc1Cl"
  measurement_unit: "µM"
  result: 0.64
- smiles_str: "O=[N+]([O-])c1c(Cl)c(C(F)(F)F)cc2nc(O)c(O)nc12"
  measurement_unit: "µM"
  result: 0.55
- smiles_str: "O=[N+]([O-])c1c(Cl)ccc2nc(O)c(O)nc12"
  measurement_unit: "µM"
  result: 36.4
- smiles_str: "Oc1nc2cc(Br)cc(C(F)(F)F)c2nc1O"
  measurement_unit: "µM"
  result: 3.4
- smiles_str: "CC(=O)Nc1c(Cl)c(Cl)cc2nc(O)c(O)nc12"
  measurement_unit: "µM"
  result: 5.57
- smiles_str: "O=[N+]([O-])c1c(F)c(F)cc2nc(O)c(O)nc12"
  measurement_unit: "µM"
  result: 6.01
- smiles_str: "O=c1[nH]c2cc(Cl)c(Cl)c([N+](=O)[O-])c2[nH]c1=O"
  measurement_unit: "µM"
  result: 1.5
- smiles_str: "O=[N+]([O-])c1c(Br)c(F)cc2nc(O)c(O)nc12"
  measurement_unit: "µM"
  result: 3.45
- smiles_str: "Nc1c(Br)c(Br)cc2nc(O)c(O)nc12"
  measurement_unit: "µM"
  result: 3.32
- smiles_str: "Oc1nc2cc(Cl)c(Cl)c(Cl)c2nc1O"
  measurement_unit: "µM"
  result: 4.19
- smiles_str: "Oc1nc2cc(Cl)c(Cl)cc2nc1O"
  measurement_unit: "µM"
  result: 4.81
- smiles_str: "O=[N+]([O-])c1ccc2nc(O)c(O)nc2c1"
  measurement_unit: "µM"
  result: 1.67
- smiles_str: "Oc1nc2cc(Br)c(Br)cc2nc1O"
  measurement_unit: "µM"
  result: 4.05
- smiles_str: "O=[N+]([O-])c1c(Cl)c(Br)cc2nc(O)c(O)nc12"
  measurement_unit: "µM"
  result: 1.24
